- TARGET ENTITY: hCA IX (Homo sapiens, UniProt Q16790)
- ASSAY NAME: stopped flow CO2 hydrase assay, hCA IX
hey, just use 1.0 if measured Ki is less than 10 nM, otherwise 0.0

Dear reviewer, please state whether NS(=O)(=O)c1ccc(CCNC(=O)OCCNC(=O)c2cc([N+](=O)[O-])ccc2N(CCCl)CCCl)cc1 has Ki strictly beneath 10 nM.
0.0

Another molecule to look at: NS(=O)(=O)c1ccc(CNC(=O)OCCNC(=O)c2cc([N+](=O)[O-])ccc2N(CCCl)CCCl)cc1
0.0

Another: NS(=O)(=O)c1ccc(CCNC(=O)OCc2ccc([N+](=O)[O-])o2)cc1
1.0

How about Cc1ncc([N+](=O)[O-])n1CCOC(=O)NCc1ccc(S(N)(=O)=O)cc1 ?
0.0

Note, next up: Cn1c(COC(=O)NCCc2ccc(S(N)(=O)=O)cc2)cnc1[N+](=O)[O-]
1.0

Thanks! And Cc1ncc([N+](=O)[O-])n1CCOC(=O)NCCc1ccc(S(N)(=O)=O)cc1 ?
0.0
